Listed here are compounds together with their documented disease control rating PB.
# System: Botrytis cinerea
# experiment: In vivo fungicidal activity, Pepper Botrytis (PB); further: ranges in brackets are in %
# settings: Table VIa; host plants sprayed; solution of 400 ppm and dilutions

[
  {
    "compound": "CC(C)(C)C1CCC2(CC1)CC(CCNC1CCC3CCCCC3C1)CO2 (centres unmarked)",
    "disease control rating PB": "7 (90-95)"
  },
  {
    "compound": "CCCCCC(C)NCCC1COC2(CCC(C(C)(C)C)CC2)C1 (centres unmarked)",
    "disease control rating PB": "4 (45-59)"
  },
  {
    "compound": "CCCCCC(C)N(CC)CCC1COC2(CCC(C(C)(C)C)CC2)C1 (centres unmarked)",
    "disease control rating PB": "7 (90-95)"
  },
  {
    "compound": "CCCCC(CC)NCCC1COC2(CCC(C(C)(C)C)CC2)C1 (centres unmarked)",
    "disease control rating PB": "8 (96-99)"
  },
  {
    "compound": "CC(C)(C)C1CCC2(CC1)CC(CCN1CCCCC1)CO2 (centres unmarked)",
    "disease control rating PB": "8 (96-99)"
  },
  {
    "compound": "CCCCN(CCCC)CCC1COC2(CCC(C(C)(C)C)CC2)C1 (centres unmarked)",
    "disease control rating PB": "5 (60-74)"
  },
  {
    "compound": "CN(CC1COC2(CCC(C(C)(C)C)CC2)C1)C1CCCCC1 (centres unmarked)",
    "disease control rating PB": "7 (90-95)"
  },
  {
    "compound": "CCN(CC1COC2(CCC(C(C)(C)C)CC2)C1)C1CCCCC1 (centres unmarked)",
    "disease control rating PB": "5 (60-74)"
  }
]

====

Listed compounds paired with reported disease control rating BCB
# Test system: Botrytis cinerea
# experiment: Direct protectant activity against broad bean grey mould (BCB)
# Assay type: in vivo
# settings: direct protectant foliar spray, 600 ppm, 4 days
measurement.name: disease control rating BCB

[
  {
    "compound": "CC1CCCC(NC2COC3(CCC(C(C)(C)C)CC3)C2)C1 (stereo not drawn) [Compound 88]",
    "measurement.name": "disease control rating BCB",
    "measured.result": "2 (greater than 80% disease control)"
  },
  {
    "compound": "CCCCCCNC1COC2(CCC(C(C)(C)C)CC2)C1 (stereo not drawn) [Compound 41]",
    "measurement.name": "disease control rating BCB",
    "measured.result": "0 (less than 50% disease control)"
  },
  {
    "compound": "CCN(CCC1CCCCC1)C1COC2(CCC(C(C)(C)C)CC2)C1 (stereo not drawn) [Compound 118]",
    "measurement.name": "disease control rating BCB",
    "measured.result": "0 (less than 50% disease control)"
  },
  {
    "compound": "CC(C)(C)C1CCC2(CC1)CC(N1CCC3CCCCC3C1)CO2 (stereo not drawn) [Compound 6]",
    "measurement.name": "disease control rating BCB",
    "measured.result": "1 (about 50-80% disease control)"
  },
  {
    "compound": "CN(CCC1CCCCC1)C1COC2(CCC(C(C)(C)C)CC2)C1 (stereo not drawn) [Compound 117]",
    "measurement.name": "disease control rating BCB",
    "measured.result": "0 (less than 50% disease control)"
  },
  {
    "compound": "CC(C)(C)C1CCC2(CC1)CC(CCNC1CCCCC1)CO2 (stereo not drawn) [Compound 189]",
    "measurement.name": "disease control rating BCB",
    "measured.result": "0 (less than 50% disease control)"
  },
  {
    "compound": "C1CCC2CN(C3COC4(C3)C3CC5CC(C3)CC4C5)CCC2C1 (stereo not drawn) [Compound 113]",
    "measurement.name": "disease control rating BCB",
    "measured.result": "1 (about 50-80% disease control)"
  },
  {
    "compound": "CCCNC1COC2(CCC(C(C)(C)C)CC2)C1 (stereo not drawn) [Compound 62]",
    "measurement.name": "disease control rating BCB",
    "measured.result": "1 (about 50-80% disease control)"
  },
  {
    "compound": "CCCCCCNC1COC2(CCC(C(C)(C)C)CC2)C1 (stereo not drawn) [Compound 39]",
    "measurement.name": "disease control rating BCB",
    "measured.result": "0 (less than 50% disease control)"
  },
  {
    "compound": "C=CCN(C1CCCCC1)C1COC2(CCC(C(C)(C)C)CC2)C1 (stereo not drawn) [Compound 79]",
    "measurement.name": "disease control rating BCB",
    "measured.result": "1 (about 50-80% disease control)"
  },
  {
    "compound": "CCCCCN(C1CCCCC1)C1COC2(CCC(C(C)(C)C)CC2)C1 (stereo not drawn) [Compound 77]",
    "measurement.name": "disease control rating BCB",
    "measured.result": "0 (less than 50% disease control)"
  },
  {
    "compound": "CC(C)CNC1COC2(CCC(C(C)(C)CC(C)(C)C)CC2)C1 (stereo not drawn) [Compound 137]",
    "measurement.name": "disease control rating BCB",
    "measured.result": "0 (less than 50% disease control)"
  },
  {
    "compound": "CCC(C)(C)C1CCC2(CC1)CC(N1CC(C)CC(C)C1)CO2 (stereo not drawn) [Compound 52]",
    "measurement.name": "disease control rating BCB",
    "measured.result": "0 (less than 50% disease control)"
  },
  {
    "compound": "CC1CCN(C2COC3(CCC(C(C)(C)C4CCCCC4)CC3)C2)CC1 (stereo not drawn) [Compound 141]",
    "measurement.name": "disease control rating BCB",
    "measured.result": "0 (less than 50% disease control)"
  },
  {
    "compound": "CC1CCC(NC2COC3(CCC(C(C)(C)C)CC3)C2)CC1 (stereo not drawn) [Compound 89]",
    "measurement.name": "disease control rating BCB",
    "measured.result": "0 (less than 50% disease control)"
  }
]
